measurement-description: HUVEC growth inhibition – cell-based, human, primary screen (AID 575)
run-parameters: HUVEC proliferation, CellTiter-Glo luminescence, 72 h; at 10 µM; active compounds read low
Please note: viability exactly at 80% is False. Only values below 80% get True.

Example entries and their recorded answers appear below.
>  <compound>
Cc1ccc(S(=O)(=O)N2CCOCC2)cc1C(=O)Nc1ccccn1

>  <qualitative-label>
False

$$$$
>  <compound>
COCCn1c(=NC(=O)CSC(C)=O)sc2cc(F)ccc21

>  <qualitative-label>
True

$$$$
>  <compound>
O=C(CCN1CCN(C(=O)c2ccco2)CC1)Nc1ccc(F)cc1

>  <qualitative-label>
False

$$$$
>  <compound>
O=C(O)COc1ccc(Oc2ccccc2)cc1

>  <qualitative-label>
False

$$$$

Prompt: Below 80% on viability? Entry `CCOC(=O)c1c(N)sc(C(=O)N2CCOCC2)c1C`
Completion: False

Prompt: Is 80% strictly greater than the compound's reported viability? compound: `CC/C(O)=C(/C#N)c1nnc2n1CCCCC2`
Completion: False
